B1: CD2-associated protein, residues 271 to 331; numbered along this chain, Q9Y5K6 (parent)
chain: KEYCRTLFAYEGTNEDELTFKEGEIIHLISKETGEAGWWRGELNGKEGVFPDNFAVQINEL

# Variants of: B1
# test protocol: abundance fitness (aPCA) (normalised: wild type 0, dead -1); higher = more abundant; growth selection in yeast, the domain comes from the species named
# run conditions: Homo sapiens

>  <mut>
G37V

>  <abundance fitness>
-0.647

$$$$
>  <mut>
F20T

>  <abundance fitness>
-0.854

$$$$
>  <mut>
G37N

>  <abundance fitness>
-0.747

$$$$
>  <mut>
W39I

>  <abundance fitness>
-0.851

$$$$
>  <mut>
I26R

>  <abundance fitness>
-0.829

$$$$
>  <mut>
C4D

>  <abundance fitness>
-1.04

$$$$
>  <mut>
E35L

>  <abundance fitness>
-0.035

$$$$
>  <mut>
L28N

>  <abundance fitness>
-0.59

$$$$
>  <mut>
W38M

>  <abundance fitness>
-0.17

$$$$
>  <mut>
G23I

>  <abundance fitness>
-0.613

$$$$
>  <mut>
Y3M

>  <abundance fitness>
-0.372

$$$$
>  <mut>
K31P

>  <abundance fitness>
-0.703

$$$$
>  <mut>
E35M

>  <abundance fitness>
-0.028

$$$$
>  <mut>
I29E

>  <abundance fitness>
-0.705

$$$$
>  <mut>
H27Y

>  <abundance fitness>
-0.126

$$$$
>  <mut>
E24W

>  <abundance fitness>
-0.827

$$$$
>  <mut>
T19K

>  <abundance fitness>
-0.436

$$$$
>  <mut>
E17V

>  <abundance fitness>
-0.497

$$$$
>  <mut>
L18N

>  <abundance fitness>
-0.761

$$$$
>  <mut>
N53C

>  <abundance fitness>
-0.138

$$$$
>  <mut>
E11C

>  <abundance fitness>
-0.256

$$$$
>  <mut>
E32M

>  <abundance fitness>
-0.307

$$$$
>  <mut>
I25K

>  <abundance fitness>
-0.35

$$$$
>  <mut>
E22N

>  <abundance fitness>
-0.437

$$$$
>  <mut>
K46H

>  <abundance fitness>
0.083

$$$$
>  <mut>
D16E

>  <abundance fitness>
-0.018

$$$$
>  <mut>
G48H

>  <abundance fitness>
-0.749

$$$$
>  <mut>
D16Y

>  <abundance fitness>
-0.072

$$$$
>  <mut>
T6M

>  <abundance fitness>
-0.474

$$$$
>  <mut>
P51N

>  <abundance fitness>
-0.582

$$$$
>  <mut>
E47I

>  <abundance fitness>
0.053

$$$$
>  <mut>
F8H

>  <abundance fitness>
-0.109

$$$$
>  <mut>
N14H

>  <abundance fitness>
-0.107

$$$$
>  <mut>
R40Y

>  <abundance fitness>
-0.195

$$$$
>  <mut>
T33I

>  <abundance fitness>
-0.099

$$$$
>  <mut>
V49Y

>  <abundance fitness>
-0.022

$$$$
>  <mut>
T33Y

>  <abundance fitness>
-0.222

$$$$
>  <mut>
I29V

>  <abundance fitness>
-0.047

$$$$
>  <mut>
A9R

>  <abundance fitness>
-0.144

$$$$
>  <mut>
K46A

>  <abundance fitness>
-0.134

$$$$
>  <mut>
E22P

>  <abundance fitness>
-0.061

$$$$
>  <mut>
Y10C

>  <abundance fitness>
-0.659

$$$$
>  <mut>
G12S

>  <abundance fitness>
-0.113

$$$$
>  <mut>
E2G

>  <abundance fitness>
-0.078

$$$$
>  <mut>
F50L

>  <abundance fitness>
-0.668

$$$$
>  <mut>
F20P

>  <abundance fitness>
-0.893

$$$$

The values you see were collected from the Human Domainome abundance scans (Beltran et al. 2025).
